target: human M2 receptors (Homo sapiens, UniProt P08172); construct: purchased Receptor Biology; host or cells: CHO-K1 cells transfected with the human receptor (membranes); test: Binding test to cloned human M2 muscarinic receptor ([3H]-NMS displacement, CHO-K1 membranes), reported as M2/M3 ratio; conditions: value greater than 1 indicates selectivity for the M3 receptor
Sequence (P08172 whole entry): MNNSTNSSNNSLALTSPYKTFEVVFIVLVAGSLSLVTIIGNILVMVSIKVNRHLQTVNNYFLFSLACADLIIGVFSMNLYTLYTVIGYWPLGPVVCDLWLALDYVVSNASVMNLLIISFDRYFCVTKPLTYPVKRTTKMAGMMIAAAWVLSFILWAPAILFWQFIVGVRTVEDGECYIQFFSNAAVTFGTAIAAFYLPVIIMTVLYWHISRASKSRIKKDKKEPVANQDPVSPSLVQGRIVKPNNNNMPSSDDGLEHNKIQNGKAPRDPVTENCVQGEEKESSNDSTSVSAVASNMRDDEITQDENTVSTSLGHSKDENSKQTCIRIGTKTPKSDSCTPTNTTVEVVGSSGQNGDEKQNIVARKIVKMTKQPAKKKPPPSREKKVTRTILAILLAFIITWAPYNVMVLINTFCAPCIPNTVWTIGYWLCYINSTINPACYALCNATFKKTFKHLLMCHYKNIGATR
endpoint: M2/M3 (ratio between M2 and M3 receptor affinities)
// no unit, no text: just the number

Worked examples, 5 molecules total:
INSERT INTO assay_data (molecule, value_observed) VALUES
  ('O=C(OC1CN2CCC1CC2)N(Cc1ccc(F)c(Cl)c1)c1ccccc1 (stereo not shown)', 35),
  ('O=C(OC1CN2CCC1CC2)N(Cc1ccc(O)cc1)c1ccccc1 (stereo not shown)', 33),
  ('Cc1cccc(N(CC2CCC(C)CC2)C(=O)OC2CN3CCC2CC3)c1 (stereo not shown)', 93),
  ('O=C(OC1CN2CCC1CC2)N(Cc1ccc(F)cc1)c1cccc(F)c1F (stereo not shown)', 154),
  ('Cc1ccccc1N(Cc1ccccc1)C(=O)OC1C[N+]2(C)CCC1CC2.[I-] (stereo not shown)', 13);

[Q] Which M2/M3 (ratio between M2 and M3 receptor affinities) value is on record for Cc1cccc(C)c1N(Cc1ccccc1)C(=O)OC1CN2CCC1CC2 (stereo not shown) ?
[A] 11
